Target: T1, SNTA1, Q13424
T1 sequence (Q13424 82-180, limits assumed, looked up): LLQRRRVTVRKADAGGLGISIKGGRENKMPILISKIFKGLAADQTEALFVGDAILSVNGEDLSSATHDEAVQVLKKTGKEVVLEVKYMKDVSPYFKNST
Test: holdup assay
Set-up: key: below the threshold = too weak to quantify, mostly under pKd 3.1 to 4
Settings: plain residues with an end cap or a label only (N-terminal biotin on a linker: ado-ado)
Decision: pKd compared against 4; not below it gives true (1), below it gives false (0).

Prompt: Quick check, pKd >= 4? EVEEFPETSV [TRPV3, Q8NET8]
Completion: true (1)

Prompt: Quick check, pKd >= 4? PRAEAEDSFL [PDGFRB, P09619]
Completion: false (0)

Prompt: Hello, I need to know if LPAHHNATRL [SLC34A1, Q06495] has measured pKd not below 4. Thanks!
Completion: false (0)

Prompt: Check if pKd >= 4 (inclusive). Item: LRSPRTPSEV [OR10G3, Q8NGC4]
Completion: false (0)

Prompt: I'd appreciate it if you could say whether QGLAERISVL [PRKD2, Q9BZL6] has pKd at least equal to 4.
Completion: true (1)

Prompt: Could you tell me if the measured pKd of PDGQCTVTEV [RNF146, Q9NTX7] reaches 4 or more?
Completion: true (1)

Prompt: Form field: pKd at least 4? Entry: RRISSLESEV [GRIN2C, Q14957]
Completion: true (1)

Prompt: Please indicate if the recorded pKd for TASPAKETSF [SLC2A7, Q6PXP3] meets or exceeds 4.
Completion: false (0)

Prompt: Answer whether pKd of SSALYGESDL [ACTN2, P35609] is greater than or equal to 4.
Completion: false (0)

The measured values listed here are drawn from paper PMC9482650.
